Each entry below carries its measured AC50, system: Neuronal acetylcholine receptor subunit alpha-4 (Homo sapiens). Note: assay procedure not described here.
Sequence (P43681 whole entry): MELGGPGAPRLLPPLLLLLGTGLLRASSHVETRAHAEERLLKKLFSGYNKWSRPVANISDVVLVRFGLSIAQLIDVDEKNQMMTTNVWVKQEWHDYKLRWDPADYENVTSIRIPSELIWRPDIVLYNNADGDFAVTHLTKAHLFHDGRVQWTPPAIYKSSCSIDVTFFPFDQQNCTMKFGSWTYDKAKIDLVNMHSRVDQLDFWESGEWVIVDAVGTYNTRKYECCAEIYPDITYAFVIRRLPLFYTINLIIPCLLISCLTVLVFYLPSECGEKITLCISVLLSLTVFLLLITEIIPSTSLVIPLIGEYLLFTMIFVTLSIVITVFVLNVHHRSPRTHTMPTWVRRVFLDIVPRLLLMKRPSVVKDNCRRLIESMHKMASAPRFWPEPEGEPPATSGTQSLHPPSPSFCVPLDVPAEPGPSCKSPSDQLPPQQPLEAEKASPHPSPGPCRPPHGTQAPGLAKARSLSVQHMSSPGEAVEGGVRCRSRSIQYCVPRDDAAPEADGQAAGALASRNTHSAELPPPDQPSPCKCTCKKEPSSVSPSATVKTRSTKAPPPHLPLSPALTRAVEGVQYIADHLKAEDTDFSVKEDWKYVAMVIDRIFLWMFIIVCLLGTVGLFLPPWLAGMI

// known answers, use as guide
CC[C@H]1[C@@H](O)[C@@H]2[C@H](CC[C@]3(C)[C@@H]([C@H](C)CCC(=O)O)CC[C@@H]23)[C@@]2(C)CC[C@@H](O)C[C@@H]12 [OBETICHOLIC ACID]
> 30 µM
C#C[C@]1(O)CC[C@H]2[C@@H]3CCC4=Cc5oncc5C[C@]4(C)[C@H]3CC[C@@]21C [DANAZOL]
> 10 µM
CCCc1nc(C(C)(C)O)c(C(=O)OCc2oc(=O)oc2C)n1Cc1ccc(-c2ccccc2-c2nnn[nH]2)cc1 [OLMESARTAN MEDOXOMIL]
> 10 µM

Prompt: Returns the measured AC50 for the input compound. Input: Brc1c(NC2=NCCN2)ccc2nccnc12 [BRIMONIDINE]
Response: > 30 µM

---

measurementTarget: Vasopressin V1a receptor (Homo sapiens); note: assay procedure not described here
Sequence (P37288 whole entry): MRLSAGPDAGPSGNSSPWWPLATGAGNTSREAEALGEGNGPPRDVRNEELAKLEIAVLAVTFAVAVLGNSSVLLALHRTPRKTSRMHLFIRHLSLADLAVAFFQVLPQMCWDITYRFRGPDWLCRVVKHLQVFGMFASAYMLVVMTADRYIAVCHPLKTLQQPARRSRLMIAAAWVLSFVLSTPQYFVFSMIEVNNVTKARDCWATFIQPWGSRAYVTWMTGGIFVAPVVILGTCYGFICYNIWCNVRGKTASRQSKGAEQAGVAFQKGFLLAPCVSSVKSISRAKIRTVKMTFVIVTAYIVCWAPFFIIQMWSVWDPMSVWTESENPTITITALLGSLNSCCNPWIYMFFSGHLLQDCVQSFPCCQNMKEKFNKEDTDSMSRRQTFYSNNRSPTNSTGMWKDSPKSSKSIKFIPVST
We begin with a simple list: items and their reported AC50.

// known answers, use as guide
C1CCC(C(CC2CCCCN2)C2CCCCC2)CC1 (stereo unspecified)
> 30 µM
NS(=O)(=O)Cc1noc2ccccc12 [ZONISAMIDE]
> 10 µM
CC(=O)OCC(=O)[C@@]12N=C(C)O[C@@H]1C[C@H]1[C@@H]3CCC4=CC(=O)C=C[C@]4(C)[C@H]3[C@@H](O)C[C@@]12C
> 30 µM
CCCC(=O)O[C@]1(C(=O)CO)CC[C@H]2[C@@H]3CCC4=CC(=O)CC[C@]4(C)[C@H]3[C@@H](O)C[C@@]21C [HYDROCORTISONE BUTYRATE]
> 10 µM
C[C@H]1COc2c(C3(N)CC3)c(F)cc3c(=O)c(C(=O)O)cn1c23
> 10 µM

Prompt: Returns the measured AC50 for the input molecule. Input: CC1(C)NC(=O)N(c2ccc([N+](=O)[O-])c(C(F)(F)F)c2)C1=O [NILUTAMIDE]
Response: > 30 µM

Prompt: Same for CC(C)(C)NCC(O)COc1cccc2c1CCC(=O)N2 (stereo unspecified)
Response: > 10 µM

Prompt: Same for "CC(C)C[C@H]1C(=O)N2CCC[C@H]2[C@]2(O)O[C@](NC(=O)[C@@H]3C=C4c5cccc6[nH]c(Br)c(c56)C[C@H]4N(C)C3)(C(C)C)C(=O)N12"
Response: > 30 µM

Prompt: Same for "Clc1ccc2nsnc2c1NC1=NCCN1"
Response: > 10 µM

Prompt: Same for "O=[N+]([O-])c1cn2c(n1)OC[C@@H](OCc1ccc(OC(F)(F)F)cc1)C2"
Response: > 10 µM

Prompt: Same for "c1cnc(N2CCN(Cc3ccc4c(c3)OCO4)CC2)nc1"
Response: > 30 µM

Prompt: Same for "CC(C)(C)c1cc(C(C)(C)C)c(NC(=O)c2c[nH]c3ccccc3c2=O)cc1O"
Response: > 30 µM

Prompt: Same for CCOc1ccccc1OCC1CNCCO1 (stereo unspecified)
Response: > 10 µM

Prompt: Same for "Cc1ccc(-c2cc(C(F)(F)F)nn2-c2ccc(S(N)(=O)=O)cc2)cc1"
Response: > 30 µM

Prompt: Same for "CC[C@H]1[C@@H](O)[C@@H]2[C@H](CC[C@]3(C)[C@@H]([C@H](C)CCC(=O)O)CC[C@@H]23)[C@@]2(C)CC[C@@H](O)C[C@@H]12"
Response: > 30 µM

Prompt: Same for "Nc1nc(/C(=C/CC(=O)O)C(=O)N[C@@H]2C(=O)N3C(C(=O)O)=CCS[C@H]23)cs1"
Response: > 30 µM
